experiment: small-molecule binders of probe aInhba, primary screen, biochemical, small-molecule microarray, 635/667 nm fluorescence (AID 1148); settings: higher = more signal;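 further: score merges 667nm spot fluorescence with signal-to-noise for antibody binding to printed compounds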
Label y when composite z-score >= 0.5; otherwise n.

Worked examples follow.
COMPOUND	ANSWER LABEL
C=C[C@H](C)[C@@H](OC(=O)Nc1ccc(OC)cc1)c1ccc(O)c2ccccc12	n
COc1cc2c(cc1OC)CN(C(=O)[C@H]1[C@@H]3C(=O)O[C@@H](c4ccccc4)[C@@H](c4ccccc4)N3[C@@H](c3ccc(O)cc3)[C@]13C(=O)Nc1ccccc13)CC2	n
COCCOC(=O)N1C(=O)[C@@]2(c3cc(C#Cc4ccc(OC)cc4)ccc31)[C@H](c1ccc(O)cc1)N1[C@H](c3ccccc3)[C@H](c3ccccc3)OC(=O)[C@H]1[C@@H]2C(=O)N1CCc2cc(OC)c(OC)cc2C1	n

Q: Please indicate if the recorded composite z-score for `NC(=O)NCC#Cc1ccc2c(c1)[C@]1(C(=O)N2)[C@H](c2ccc(O)cc2)N2[C@H](c3ccccc3)[C@H](c3ccccc3)OC(=O)[C@H]2[C@@H]1C(=O)O` meets or exceeds 0.5.
A: n

Q: Please indicate if the recorded composite z-score for `O=C1O[C@@H](c2ccccc2)[C@@H](c2ccccc2)N2[C@@H](c3ccccc3OCCO)[C@]3(C(=O)Nc4ccc(C#CC5=CCCCC5)cc43)[C@@H](C(=O)N3CCCCCCC3)[C@H]12` meets or exceeds 0.5.
A: y

Q: Please indicate if the recorded composite z-score for `O=C1O[C@H](c2ccccc2)[C@H](c2ccccc2)N2[C@H]1[C@@H](C(=O)N1CCCCCCC1)[C@]1(C(=O)Nc3ccc(C#CC4=CCCCC4)cc31)[C@H]2c1ccc(OCCO)cc1` meets or exceeds 0.5.
A: y

---

# z-score annotations
assay: S. cerevisiae RM11-1a growth modifiers, primary screen, strain RM11-1a, OD600, basal, 24 h (AID 1177); conditions: OD600, 24 h, higher = more signal, called active from +8 up or from −8 down;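 further: cultures grown under basal conditions with no added stressor; test concentration not given here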
Respond with the number and no other words.

MOLECULE	z-score
COc1ccc([C@H]2OC[C@@H]3C[C@@H](Cc4ccccc4)C(=O)N32)cc1	-0.64

Q: Which z-score value belongs to C=C(C)[C@@H]1CC=C(C(O)C2C=CC3C(=O)N(c4ccccc4)C(=O)C3N2Nc2ccccc2)CC1 (some centres undefined) ?
A: 0.367

Q: Which z-score value belongs to `C=C[C@@H](COC(=O)OC(C)(C)C)N(Cc1ccc(OC)cc1)S(=O)(=O)c1ccc(Br)cc1` ?
A: 0.378

Q: Which z-score value belongs to `CCC[C@@H]1C[C@@]1(CCC)[C@@H](NS(=O)(=O)c1cccc2cccnc12)c1ccc(Cl)cc1` ?
A: 1.24

---

test: P. aeruginosa biofilm formation inhibitors, primary screen, PAO1 strain, BacTiter-Glo luminescence, LB-PBS (AID 1144); conditions: 12 h, higher = more signal
TEST READOUT: z-score
Respond with the number and no other words.

COMPOUND	z-score
C=CCNC(=O)[C@@H]1[C@H]2C(=O)O[C@H](c3ccccc3)[C@H](c3ccccc3)N2[C@H](c2ccc(O)cc2)[C@@]12C(=O)Nc1ccc(C#CCNC(N)=O)cc12	-0.233

Q: Which z-score value belongs to `CCCCCCc1nc(-c2ccc(OC)nc2)cc2c1[Si](C(C)C)(C(C)C)O[C@H]2c1ccccc1` ?
A: 0.0731

Q: Which z-score value belongs to `COC(=O)c1c(CC[C@@H](CO)NC(=O)NCCn2cc(C3(O)CCCC3)nn2)oc(C(C)=O)c1C(=O)OC` ?
A: 0.699

Q: Which z-score value belongs to CC(C)C[C@@H]1NC(=O)[C@H](C(C)C)NC(=O)[C@@]23C(=O)N[C@@H](Cc4ccccc4)C2[C@H](C)[C@@]2(C)O[C@H]2C3/C=C/CC/C=C/CNC1=O (stereo partly drawn) ?
A: -1.07
